# targetDesc: T1, recombinant, soluble human ASGR-1 (human, UniProt P07306 62-291)
# T1 construct: biotinylated in the binning assay; also called soluble huASGR-1; Soluble ASGR-1 (Amgen)
# T1 sequence: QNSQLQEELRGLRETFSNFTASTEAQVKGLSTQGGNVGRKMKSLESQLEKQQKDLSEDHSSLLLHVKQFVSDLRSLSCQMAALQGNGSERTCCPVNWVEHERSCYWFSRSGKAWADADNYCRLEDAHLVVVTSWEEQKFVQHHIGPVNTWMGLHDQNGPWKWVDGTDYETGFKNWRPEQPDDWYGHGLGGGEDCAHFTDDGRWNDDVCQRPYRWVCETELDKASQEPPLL
# assay: Octet BLI dissociation, pH 7.4 minus calcium
Entries and their measured % Change Compared to pH 7.4 + Calcium follow.
Provide a numeric answer, followed by its unit.

binder	readoutType	measurement
192G6 (antibody, V domains shown, hybridoma mAb) VH: QVQLVESGGGVVQPGRSLRLSCAASGFTFSSYGMHWVRQAPGKGLEWVAVLWYDGTNKNYADSVKGRFTISRDNSKNTLYLQMNSLRAEDTAVYYCARDQGVGYDGLDVWGQGTTVTVSS VL: DIKMTQSPSSLSASVGDRVTITCRTSQGIGNYLAWFQQKPGKAPKSLLYKASSLQSGVPSKFSGSGSGTDFTLTISSLQPEDFATYYCQQYMTYPLTFGGGTKVEIK	% Change Compared to pH 7.4 + Calcium	-1%
70D1 (antibody, V domains shown, hybridoma mAb) VH: QVQLVQSGAEVKKPGASVKVSCKASGYTFTGYHMHWVRQAPGQGLEWMGWINPNSNATNYAQKFQGRVTMTRDTSISTAYMELSRLRSDDTAVYYCARDSISSWDYWGQGTLVTVSS VL: DIQMTQSPSSVSASVGDRVTITCRASQGVSRWLAWYQQKPGKAPKLLIYAASSLQSGVPSRFSGSGSGTDFTVTISSLQPEDFATYYCQQANSFPFTFGPGTKVDIK	% Change Compared to pH 7.4 + Calcium	17%
197G3 (antibody, V domains shown, hybridoma mAb) VH: QVQLVESGGGVVQPGRSLRLSCVASGFTFSSHGMHWVRQAPGKGLEWVAVIWYDGSNKNYADSVKGRFTISRDNSKNTLYLQMNSLRAEDTAVYYCARDPSVGYDGMDVWGQGTTVTVSS VL: DIQMTQSPSSLSASVGDRVTITCRASQGIGNHLAWFQQKPGKAPKSLIYAASSLQSGVPSKFSGSRSGTDFSLTISSLQPEDFATYYCQQYSNYPVTFGPGTKVDIK	% Change Compared to pH 7.4 + Calcium	2%
190E6 (antibody, V domains shown, hybridoma mAb) VH: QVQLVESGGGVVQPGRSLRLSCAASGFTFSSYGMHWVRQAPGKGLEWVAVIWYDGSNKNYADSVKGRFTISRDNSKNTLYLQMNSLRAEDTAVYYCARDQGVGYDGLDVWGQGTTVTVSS VL: DIQMTQSPSSLSASVGDRVTITCRTSQGIGNYLAWFQQKPGKAPKSLLYKASSLQSGVPSKFSGSGSGTDFTLTISSLQPEDFATYYCQQYMTYPLTFGGGTKVEIK	% Change Compared to pH 7.4 + Calcium	-1%

q: Would you mind telling me what % Change Compared to pH 7.4 + Calcium value was observed for 193E7 (antibody, V domains shown, hybridoma mAb) VH: QVQLQQWGAGLLKPSETLSLTCAVYGGSFSGYFWTWIRQPPGKGLEWIGEINHSGSTNYNPSLKSRVTISVDTSKNQFSLKLSSVTAADTAVYYCARDYGADYWGQGTLVAVSA VL: DIQMTQSPSSLSASVGDRVTITCRASQGIRNDLGWYQQKPGKAPKRLIYSASSLQRGVPSRFSGSGSGTEFTLTISSLQPEDFATYYCLQHKRYPLTFGGGTKVEIK ?
a: -9%
